Please go through the items and note down their mGlu3 pIC50 (± SEM).
target: rat mGlu3 (Rattus norvegicus, UniProt P31422); settings: calcium mobilization; average of n ≥ 3
Sequence (P31422 23-879): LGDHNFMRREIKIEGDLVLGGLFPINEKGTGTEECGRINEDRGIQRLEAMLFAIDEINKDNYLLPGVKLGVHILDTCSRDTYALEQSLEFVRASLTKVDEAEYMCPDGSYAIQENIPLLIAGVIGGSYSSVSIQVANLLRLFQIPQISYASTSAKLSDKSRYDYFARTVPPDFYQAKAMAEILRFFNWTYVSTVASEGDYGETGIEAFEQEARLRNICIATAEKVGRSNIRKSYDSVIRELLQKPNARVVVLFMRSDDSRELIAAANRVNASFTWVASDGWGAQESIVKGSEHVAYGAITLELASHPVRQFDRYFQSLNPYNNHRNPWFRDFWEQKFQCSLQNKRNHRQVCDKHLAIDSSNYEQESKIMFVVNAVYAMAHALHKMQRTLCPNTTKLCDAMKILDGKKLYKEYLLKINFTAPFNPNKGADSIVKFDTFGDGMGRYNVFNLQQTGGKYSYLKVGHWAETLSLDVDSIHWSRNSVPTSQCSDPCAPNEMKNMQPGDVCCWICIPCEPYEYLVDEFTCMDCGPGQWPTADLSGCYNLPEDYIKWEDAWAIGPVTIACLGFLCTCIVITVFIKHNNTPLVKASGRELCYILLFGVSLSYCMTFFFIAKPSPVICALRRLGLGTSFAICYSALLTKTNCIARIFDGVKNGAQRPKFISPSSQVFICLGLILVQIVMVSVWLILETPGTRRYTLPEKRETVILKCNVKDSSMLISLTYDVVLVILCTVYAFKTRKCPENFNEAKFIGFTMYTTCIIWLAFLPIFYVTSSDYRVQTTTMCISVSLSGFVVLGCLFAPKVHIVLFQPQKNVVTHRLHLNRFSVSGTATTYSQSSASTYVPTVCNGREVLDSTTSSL
Answer field: number only, no words.

API: value(readout=mGlu3 pIC50 (± SEM), system=rat mGlu3 (Rattus norvegicus, UniProt P31422)) for record C[C@@H]1CN(c2cncc(C#N)c2)C(=O)c2cc(COc3ccc(Cl)cn3)nn21 6.22

mGlu3 pIC50 (± SEM) of C[C@@H]1CN(c2ccc(Cl)cc2)C(=O)c2cc(COc3ccc(Cl)cn3)nn21 on rat mGlu3 (Rattus norvegicus, UniProt P31422)? 5.91

Fill in the recorded mGlu3 pIC50 (± SEM) for this compound, with rat mGlu3 (Rattus norvegicus, UniProt P31422) as test system: Cc1cccc(N2C[C@@H](C)n3nc(COc4ccc(Cl)cn4)cc3C2=O)c1 6.41

What mGlu3 pIC50 (± SEM) appears in the records for this compound with rat mGlu3 (Rattus norvegicus, UniProt P31422)? C[C@@H]1CN(c2ccc(F)cc2)C(=O)c2cc(COc3cccc(C(F)(F)F)n3)nn21 5.63

Value wanted: mGlu3 pIC50 (± SEM) (rat mGlu3 (Rattus norvegicus, UniProt P31422)) of entry C[C@@H]1CN(c2ccccn2)C(=O)c2cc(COc3ccc(Cl)cn3)nn21 6.48

State its mGlu3 pIC50 (± SEM) on rat mGlu3 (Rattus norvegicus, UniProt P31422): C[C@@H]1CN(c2cccc(F)n2)C(=O)c2cc(COc3ccc(Cl)cn3)nn21 6.53

Enter reported mGlu3 pIC50 (± SEM) observed with rat mGlu3 (Rattus norvegicus, UniProt P31422) for C[C@@H]1CN(c2ccc(F)cc2)C(=O)c2cc(COc3ccc(F)cc3)nn21 6.34

Kindly state the measured mGlu3 pIC50 (± SEM) obtained for C[C@@H]1CN(c2ccc(F)cc2)C(=O)c2cc(COc3ncccc3F)nn21 with rat mGlu3 (Rattus norvegicus, UniProt P31422). 5.96

// map C[C@@H]1CN(c2ccc(F)cc2)C(=O)c2cc(COc3ccccc3Cl)nn21 to recorded mGlu3 pIC50 (± SEM) (system: rat mGlu3 (Rattus norvegicus, UniProt P31422)) 6.27

Which measured mGlu3 pIC50 (± SEM) belongs to Cc1ccccc1N1C[C@@H](C)n2nc(COc3ccc(Cl)cn3)cc2C1=O , tested on rat mGlu3 (Rattus norvegicus, UniProt P31422)? 6.24

Form: Entry = Cc1cccc(N2C[C@@H](C)n3nc(COc4ccc(F)cn4)cc3C2=O)c1 | System = rat mGlu3 (Rattus norvegicus, UniProt P31422) | mGlu3 pIC50 (± SEM) = ____ 6.67

mGlu3 pIC50 (± SEM) of C[C@@H]1CN(c2ccc(F)cc2)C(=O)c2cc(COc3ccccc3)nn21 on rat mGlu3 (Rattus norvegicus, UniProt P31422)? 6.57

Please state recorded mGlu3 pIC50 (± SEM) (tested on rat mGlu3 (Rattus norvegicus, UniProt P31422)) of C[C@@H]1CN(c2cc(F)cc(F)c2)C(=O)c2cc(COc3ccc(Cl)cn3)nn21 6.38

Notebook: pull reported mGlu3 pIC50 (± SEM) for rat mGlu3 (Rattus norvegicus, UniProt P31422), entry COc1cccc(N2C[C@@H](C)n3nc(COc4ccc(F)cn4)cc3C2=O)c1 6.70

# returns recorded mGlu3 pIC50 (± SEM) (system: rat mGlu3 (Rattus norvegicus, UniProt P31422)) for C[C@@H]1CN(c2ccccc2Cl)C(=O)c2cc(COc3ccc(F)cn3)nn21 6.85

Lab request: please report mGlu3 pIC50 (± SEM) under test system rat mGlu3 (Rattus norvegicus, UniProt P31422) for C[C@@H]1CN(c2cccc(C#N)c2)C(=O)c2cc(COc3ccc(Cl)cn3)nn21 6.08

Find the measured mGlu3 pIC50 (± SEM): item C[C@@H]1CN(c2cccc(F)c2F)C(=O)c2cc(COc3ccc(F)cn3)nn21 , target or system rat mGlu3 (Rattus norvegicus, UniProt P31422). 6.73

----------
molecular target: rat mGlu5 (Rattus norvegicus, UniProt P31424); assay: Calcium mobilization mGlu5 assay; format: cell-based; conditions: calcium mobilization; average of n ≥ 3 (n = 2 where marked)
Sequence (P31424 21-1203): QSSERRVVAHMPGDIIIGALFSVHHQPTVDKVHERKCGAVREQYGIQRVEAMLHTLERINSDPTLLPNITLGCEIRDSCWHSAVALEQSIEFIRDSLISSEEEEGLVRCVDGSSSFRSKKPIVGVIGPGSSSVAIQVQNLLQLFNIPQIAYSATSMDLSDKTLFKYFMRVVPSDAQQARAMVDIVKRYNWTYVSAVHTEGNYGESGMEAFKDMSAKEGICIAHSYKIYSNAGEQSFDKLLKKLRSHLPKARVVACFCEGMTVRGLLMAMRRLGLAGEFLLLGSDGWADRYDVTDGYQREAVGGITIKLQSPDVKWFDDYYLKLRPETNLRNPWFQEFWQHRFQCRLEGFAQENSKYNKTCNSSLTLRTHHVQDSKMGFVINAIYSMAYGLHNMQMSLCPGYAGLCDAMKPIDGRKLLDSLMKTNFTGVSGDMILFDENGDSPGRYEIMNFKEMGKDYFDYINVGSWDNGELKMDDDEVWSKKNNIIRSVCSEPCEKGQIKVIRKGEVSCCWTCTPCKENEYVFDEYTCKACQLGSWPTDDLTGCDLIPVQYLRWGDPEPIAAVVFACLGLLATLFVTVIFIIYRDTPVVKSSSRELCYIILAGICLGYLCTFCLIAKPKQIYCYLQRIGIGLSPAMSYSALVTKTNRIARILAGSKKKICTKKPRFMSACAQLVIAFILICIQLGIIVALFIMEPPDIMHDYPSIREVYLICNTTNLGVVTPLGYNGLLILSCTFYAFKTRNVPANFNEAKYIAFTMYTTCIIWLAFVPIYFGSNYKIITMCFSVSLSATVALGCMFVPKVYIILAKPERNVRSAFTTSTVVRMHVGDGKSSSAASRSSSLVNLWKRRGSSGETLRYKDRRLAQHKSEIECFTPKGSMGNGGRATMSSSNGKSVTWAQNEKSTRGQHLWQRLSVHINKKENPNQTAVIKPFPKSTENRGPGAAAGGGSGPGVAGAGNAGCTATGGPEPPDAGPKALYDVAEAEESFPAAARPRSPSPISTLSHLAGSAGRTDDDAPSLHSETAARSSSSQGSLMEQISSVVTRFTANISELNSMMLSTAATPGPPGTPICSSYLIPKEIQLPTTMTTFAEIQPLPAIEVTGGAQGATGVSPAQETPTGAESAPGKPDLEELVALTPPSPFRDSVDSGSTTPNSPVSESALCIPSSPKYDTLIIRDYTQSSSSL
assay.endpoint: mGlu5 pEC50 (± SEM)
Just the number.

What value of mGlu5 pEC50 (± SEM) on rat mGlu5 (Rattus norvegicus, UniProt P31424) does C[C@@H]1CN(c2ccc(F)cc2)C(=O)c2cc(COc3ccc(C#N)cc3)nn21 have? 5.71

Provide value of mGlu5 pEC50 (± SEM) for this record tested with rat mGlu5 (Rattus norvegicus, UniProt P31424): C[C@@H]1CN(c2ccc(F)cc2)C(=O)c2cc(COc3ccccc3)nn21 7.34

Lab request: please report mGlu5 pEC50 (± SEM) under test system rat mGlu5 (Rattus norvegicus, UniProt P31424) for C[C@@H]1CN(c2ccc(F)cc2)C(=O)c2cc(COc3ccc(F)cc3)nn21 7.03

// lookup mGlu5 pEC50 (± SEM) | system=rat mGlu5 (Rattus norvegicus, UniProt P31424) | key= C[C@@H]1CN(c2ccc(F)cc2)C(=O)c2cc(COc3cccc(F)c3)nn21 7.14

----------
target: rat mGlu3 (Rattus norvegicus, UniProt P31422)
assay.endpoint: pIC50
In textbook form, pIC50 equals minus log to base ten of the concentration in mol/L.

# returns recorded pIC50 (system: rat mGlu3 (Rattus norvegicus, UniProt P31422)) for C[C@@H]1CN(c2cc(F)cc(C#N)c2)C(=O)c2cc(COc3ccc(Cl)cn3)nn21 6.28

----------
experiment: Rat cassette PK study, IV dosing; conditions: in vivo, 0.2 mg/kg
Kindly state half-life for each of the entries shown.

Name the reported half-life value associated with the molecule C[C@@H]1CN(c2ccc(F)cc2)C(=O)c2cc(COc3ccc(F)cc3)nn21 > 1.5 h

What does the data say about its half-life? Entry: C[C@@H]1CN(c2ccc(F)cc2)C(=O)c2cc(COc3ccc(Cl)cn3)nn21 ~2 h

Consider the molecule shown here: C[C@@H]1CN(c2cc(F)cc(C#N)c2)C(=O)c2cc(COc3ccc(Cl)cn3)nn21 What is its recorded half-life? > 3 h

----------
What mGlu3 pIC50 (± SEM) was measured for each of the following?
biological target: rat mGlu3 (Rattus norvegicus); details: calcium mobilization; average of n ≥ 3
Keep it simple and answer with nothing but the number.

GET /values?readout=mGlu3 pIC50 (± SEM)&item= C[C@@H]1CN(c2ccc(F)cn2)C(=O)c2cc(COc3ccc(F)cn3)nn21 6.46

I'd like to know its mGlu3 pIC50 (± SEM). The compound in question is C[C@@H]1CN(c2ccc(F)cc2F)C(=O)c2cc(COc3ccc(Cl)cn3)nn21 6.55

Which value of mGlu3 pIC50 (± SEM) has been reported for C[C@@H]1CN(c2ccc(F)cc2)C(=O)c2cc(COc3cccc(F)c3)nn21 in the records? 6.11

For the compound Cc1ccc(OCc2cc3n(n2)[C@H](C)CN(c2ccc(F)cc2)C3=O)cc1 , what mGlu3 pIC50 (± SEM) is on record? 5.92

Sample C[C@@H]1CN(c2ccc(F)cn2)C(=O)c2cc(COc3ccc(Cl)cn3)nn21 — what was its mGlu3 pIC50 (± SEM)? 6.59

What value of mGlu3 pIC50 (± SEM) has been recorded for this entry: Cc1ccnc(OCc2cc3n(n2)[C@H](C)CN(c2ccc(F)cc2)C3=O)c1 5.68

# query: mGlu3 pIC50 (± SEM) of entry C[C@@H]1CN(c2cnccc2F)C(=O)c2cc(COc3ccc(Cl)cn3)nn21 6.32

Quick check: mGlu3 pIC50 (± SEM) of C[C@@H]1CN(c2ccc(Cl)cc2)C(=O)c2cc(COc3ccc(F)cn3)nn21 ? 6.71

What measured mGlu3 pIC50 (± SEM) goes with COc1ccccc1OCc1cc2n(n1)[C@H](C)CN(c1ccc(F)cc1)C2=O ? 5.59

Name the reported mGlu3 pIC50 (± SEM) value associated with the compound CCOc1ccc(OCc2cc3n(n2)[C@H](C)CN(c2ccc(F)cc2)C3=O)cc1 5.94

Requested field: mGlu3 pIC50 (± SEM). Item: C[C@@H]1CN(c2cccnc2)C(=O)c2cc(COc3ccc(F)cn3)nn21 6.36

I would be grateful if you could share the reported mGlu3 pIC50 (± SEM) for C[C@@H]1CN(c2ccc(F)cc2)C(=O)c2cc(COc3ccc(C#N)cc3)nn21 . 6.11

What mGlu3 pIC50 (± SEM) value was documented for this compound, C[C@@H]1CN(c2cc(F)ccc2C#N)C(=O)c2cc(COc3ccc(Cl)cn3)nn21 ? 6.28

So what does the record say about mGlu3 pIC50 (± SEM) for Cc1cccc(OCc2cc3n(n2)[C@H](C)CN(c2ccc(F)cc2)C3=O)n1 ? 5.62

Report mGlu3 pIC50 (± SEM) for C[C@@H]1CN(c2ccccc2Cl)C(=O)c2cc(COc3ccc(Cl)cn3)nn21 please. 6.48

# input compound: C[C@@H]1CN(c2ccc(F)cc2)C(=O)c2cc(COc3ccc(F)cn3)nn21 ; wanted: its mGlu3 pIC50 (± SEM) 6.27

Query (compound): C[C@@H]1CN(c2ccc(F)cc2)C(=O)c2cc(COc3ccccc3F)nn21 ; field requested: mGlu3 pIC50 (± SEM) 6.28
